Entries and their melting point
MEASURED METRIC: melting point

> print(dat)
                                    compound  measured.metric  measured.value
 1  CC(Cl)CNc1cccc(C(N)=O)c1 (stereo not given)    melting point   193 to 194 °C
 2           O=C1CC(c2cccnc2)=NN1c1ccc(O)cc1    melting point        > 250 °C
 3  CNC(=O)NC1(C)CCCc2ccccc21 (stereo not given)    melting point   183 to 186 °C
 4  CS(=O)(=O)N1CCC(Nc2nc(Cl)nc(Nc3cccc(C(F)(F)F)c3)n2)CC1    melting point   220 to 222 °C
 5  COc1cc(C(C)C)c2c(c1)S(=O)(=O)N(COc1cc(Cl)nn1-c1ccccc1)C2=O    melting point   109 to 110 °C
 6                    CN(C)CCOc1ccc(C=NO)cc1    melting point     95 to 96 °C
 7  CC1=NN=C(c2ccc([N+](=O)[O-])cc2)c2cc3c(cc2C1)OCCOC3    melting point   204 to 206 °C
 8  COc1ccc(Cl)cc1C(=O)NCCc1ccc(Br)c(S(N)(=O)=O)c1    melting point          190 °C
 9  CC(C)(C)OC(=O)Nc1cc(OC(C)(C)C)c(-c2ccc(F)cc2)cc1N    melting point          139 °C
10  COc1cccc([C@H]2O[C@H](CC(=O)NCCCOc3ccc(CC(=O)O)cc3)C(=O)N(CC(C)(C)CO)c3ccc(Cl)cc32)c1OC    melting point   125 to 128 °C
